Tested on: BDF1 mice, B16 melanoma ip, median survival T/C
Assay text: NCI In Vivo Anticancer Drug Screen. Data for tumor model B16 Melanoma (intraperitoneal) in B6D2F1 (BDF1) mice
Run parameters: endpoint: median survival time; dose: 100.0 mg/kg/injection; schedule: Q01DX009 (ip); vehicle: Klucel (hydroxypropylcellulose) (HPC); higher = longer survival
Inconclusive results and toxic doses are left out.
Quantity name: T/C

Below: 8 compounds and their reported T/C.
Compound	T/C
CC1(C)CC(O)(C(Cl)c2ccccc2)C(=O)c2ccccc21 (stereo not given)	95 % of control
Clc1nnc(Nc2ccccc2)c2ccccc12	92 % of control
COC(=O)C1C(O)C(C)C(=O)C(C)/C=C\C=C(C)C(=O)Nc2c(C)c(OC(C)=O)c3c(c2O)C(=O)C(C)=C2OCOC(=C23)C(C)=CC(C)(O)C(O)C(C)C1O (stereo not given)	89 % of control
Oc1c(Br)cc(Br)cc1/C=N/N=C/c1cc(Br)cc(Br)c1O	90 % of control
Nc1n[nH]c(=O)[nH]1	109 % of control
CCCCC(=O)OC1CC2CCC1(C)C2(C)C (stereo not given)	90 % of control
CC(=N\O)/C(C)=N/O.CC(=N\O)/C(C)=N/O.CC(=N\O)/C(C)=N/O.CC(=N\O)/C(C)=N/O.[CH3-].[CH3-].[Co].[Co]	100 % of control
O=P(OCc1ccccc1)(OCc1ccccc1)C(Nc1ccccc1)c1ccccc1 (stereo not given)	90 % of control

// lookup T/C for C/C=C(/C(=O)NC(N)=O)C(C)C
105 % of control

Reported T/C for Cc1cccc(C)c1NC(=O)c1cccc(C(=O)Nc2c(C)cccc2C)c1 : what is it?
100 % of control
